Recorded measurements of growth inhibition, one per entry
# measurement_description: NCI Yeast Anticancer Drug Screen. Data for the cln2 rad14 strain (AID 165);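 also: 0% = growth equal to vehicle treated cultures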
# experimental_parameters: S. cerevisiae cln2 rad14 strain, at 50.0 µM, active compounds read high
The panel holds about 79,000 compounds, 15% with a hit somewhere; the sample as a whole holds those more often.
quantity_name: growth inhibition (%)

>>> measurement("Cc1[nH]c2cc([N+](=O)[O-])ccc2c1C")
21.8
>>> measurement("CCOC(=O)/C(C#N)=C/c1ccc(-c2cc(C(F)(F)F)cc(C(F)(F)F)c2)o1")
-15.4
>>> measurement("CC(C)=CCC/C(C)=C/CNc1ncnc2c1ncn2C1OC(CO)C(O)C1O (stereo unspecified)")
-37
>>> measurement("CS/C1=C(\\c2ccc(C)cc2)N(c2ccccc2)C(=O)C(=O)N(c2ccccc2)/C(c2ccc(C)cc2)=C(/SC)SS1")
3
>>> measurement("Clc1cc(Cl)c2ccc3c(Cl)cc(Cl)c4ccc1c2c43")
7.3
>>> measurement("Cc1c2ccccc2cc2c1ccc1c(Br)cccc12")
25.8
>>> measurement("c1ccc(C23CCCCC2O3)cc1 (stereo unspecified)")
5.95
>>> measurement("COC(=O)C(CC(=O)c1cc2c(cc1I)OCO2)Cc1cc(OC)c(OC)c(OC)c1I (stereo unspecified)")
-1.65
>>> measurement("Cc1ccc2c(c1)C(C1=CCCc3ccc(C)cc31)=CCC2")
10.3
>>> measurement("O=C(/C(=C(/[O-])C(F)(F)F)[n+]1ccc2ccccc2c1)C(F)(F)F")
-40.1
>>> measurement("CN(C)CCN(C)CCN(C)CCN(C)C")
-6.75
